- STUDY_TARGET: T1, human α4β7 integrin on cells (human, UniProt P13612 34-1032; P26010 20-798)
- T1 construct: whole, on cells; also called α4β7 cell (Hu); RPMI8866 cells
- MEASUREMENT_PROTOCOL: RPMI8866 cell adhesion to MAdCAM-1
Bridge positions count the residues as written; N and C are the ends. Square brackets hold non-standard residues; d marks the D form. NMeR = CN[C@@H](CCCNC(=N)N)C(=O)O; Pen = CC(C)(S)[C@H](N)C(=O)O
METRIC: IC50 (nM)

The cases that follow already have their IC50 on record.
I'd like to know its IC50. The binder in question is Ac-C[NMeR]SDTLCGEK-OH (disulfide 1-7 (inferred); also: dimer linked by DIG, attachment not given here, also called peptide 201) [SEQ ID NO: 201] 28

I'd like to know its IC50. The binder in question is Ac-[Pen][NMeR]SDTL[Pen]W[dE][dK]-OH (disulfide 1-7; not fully specified (residue 10); printed as (Ac Pen N-Me-R S D T L Pen W e k OH)2 DIG, disulfide Pen-Pen; also: dimer, two subunits joined by DIG linker, also called peptide 216) [SEQ ID NO: 216] 4.2

I = Ac-CRSDTLC-NH2 (disulfide 1-7 (inferred), also called peptide 195) [SEQ ID NO: 195]
II = Ac-C[NMeR]SDTLCK-OH (disulfide 1-7 (inferred); also: dimer linked by PEG25, attachment not given here, also called peptide 200) [SEQ ID NO: 200]
Lab notebook, comparison: I versus II , higher IC50 goes to which? API: response body contains the label of the selected item. I
